Tested on: senescent human cells
experimentSummary: Viability of doxorubicin-induced senescent human cells (CellTiter-Glo), Example 11
Assay type: cell-based
protocolConditions: Homo sapiens; 3.3 μM; 0 μM = 100; read-out: Survival
Quick reference: viability at […] of the listed items.
Note: unit % is implicit; provide only the numeric part.

Below, each entry is followed by its recorded viability at […] result.
{"cpdSmiles": "C[C@H]1[C@H](C)CC[C@]2(C(=O)O)CC[C@]3(C)C(=CC[C@@H]4[C@@]5(C)CC[C@H](O)C(C)(C)[C@@H]5CC[C@]43C)[C@H]12", "reportedProperty": "viability at […]", "observedMeasurement": 0.8}
{"cpdSmiles": "CC(C)c1onc(C(=O)N2CCN(C(c3ccccc3)c3ccccc3)CC2)c1[N+](=O)[O-]", "reportedProperty": "viability at […]", "observedMeasurement": 12.4}

Report viability at […] for Cc1nnc(-c2cc(C(=O)N3CCC(c4ccc(C#N)cc4)CC3)c(C)cc2C2CCC2)[nH]1 tested on senescent human cells.
97.2

Further, for CCN(CC)C(=S)SSC(=S)N(CC)CC ?
90
